# assayed-system: T1, human PAR-2 (human, UniProt P55085 26-397)
# T1 sequence: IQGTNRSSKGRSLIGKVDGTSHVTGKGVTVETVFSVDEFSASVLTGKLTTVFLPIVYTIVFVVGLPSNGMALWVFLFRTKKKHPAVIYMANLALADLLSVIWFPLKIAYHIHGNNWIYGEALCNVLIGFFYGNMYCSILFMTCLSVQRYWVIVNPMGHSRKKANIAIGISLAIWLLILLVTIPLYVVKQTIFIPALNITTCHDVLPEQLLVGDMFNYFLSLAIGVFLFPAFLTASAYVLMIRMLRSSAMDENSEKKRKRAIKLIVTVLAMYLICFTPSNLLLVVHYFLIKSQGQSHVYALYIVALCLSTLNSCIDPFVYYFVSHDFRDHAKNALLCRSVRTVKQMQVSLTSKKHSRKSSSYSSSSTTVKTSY
# procedure-details: cell-based or functional assay
IC50, PAR-2 β-arrestin cell assay values for the binders below.
// return numeric value only (unit: nM, not printed)

binder	IC50, PAR-2 β-arrestin cell assay [nM]
Ab39 (antibody, human IgG4, V domains shown, also called Anti-PAR-2 antibody # 39) VH: EVQLVESGGGLVQPKGSLKLSCAASGFTFNTYAMHWVRQAPGKGLEWVARIGSKSSYYATYYADSVKDRFTISRADSQSMLYLQMNNLKTEDTAIYYCVREDYYGCSFDYWGQGTTLTVSS VL: QIVLSQSPVILSTSPGEKVTMTCRANSRVIYVHWYQQKPGSSPKPWIFATSNLASGVPSRFSGSGSGTSYSLTISRVETEDAATYYCQHCGNNPPTFGSGTKLEIK	4.9

State its IC50, PAR-2 β-arrestin cell assay for this binder: Ab309 (antibody, human IgG4, V domains shown) VH: QVQLKESGPGLVQPSQTLSLTCTVSGFSLNSYGVIWARQPPGKGLDWMGVIWGNGNTYYNSDLKSRLSISRDTSKSQVFLKMNNLQAEDTALYFCARWRGYKDYPFDYWGQGVMVTVSS VL: DIQMTQSPSFLSASVGDRVTFNCKASQNIYKYLDWYQQKLGEAPKLLIYNTNSLHTGIPSRFSGSGFGTDFTLTISSLQPEDVATYFCLQHNSGWTFGGGTKLELR 1.6
